From: patent US20220251215A1

Entries and their kon values follow.
# EXPERIMENTAL SYSTEM: T1, monomeric HLA-A2:NY-ESO-1(156-165) (V at position 165) peptide complex, 2906
# T1 construct: also called soluble HLA-A2:NY-ESO-1 peptide complex
# PROTOCOL NOTES: SPR, 25 C, antibody captured, monomeric complex injected;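 also: antibody held on sensor chip via immobilized anti-human or anti-mouse Fc antibody, rate constants derived by fitting sensorgrams to a 1:1 binding model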
Kindly answer with a numeric value in M⁻¹ s⁻¹, unit omitted.

Task: # query: kon of entry mAb24959N (antibody, human IgG4 S228P, kappa, V domains shown) VH: QLQLLESGPGLVKPSETLSLICTVSGGSIRGSSYYWGWIRQPPEKGLEWIGSIYSSGSTYYNPSLKSRVTISADTSKNQFSLKLSSVTAADTAVYYCARHGGITAVQLEFDPWGQGTLVTVSS VL: DIQMTQSPSSLSASVGDRVTITCQASQDISNYLKWYQQKPGKAPKILIHDASNLEIGVPSRFSGSGAGTDFIFTISSLQPEDIGTYYCQQYDNLPITFGQGTRLEIKR
Result: 421000

Task: Moving on to the next binder: mAb28037P2 (antibody, human IgG4 S228P, kappa, V domains shown) VH: QVQLQESGPGLVKPSETLSLTCTVSGDSISVYYWTWIRQPPGKGLEWIGYVHYTGYTNYNPSLKSRVTMSVDTAKKQISLKVRSVTAADTAVYYCARTIPAAAHYYHGTDVWGPGTTVTVSS VL: DIQMTQSPSSLSASVGDRVTITCQANQDIRKYLNWYQQKSGKAPTLLIYEASNLETGAPSTFSGSGSGTEFTFTISSLRPEDIATYYCQQYESLPLTFGGGTKVEIKR
Result: 443000

Task: # iterate: mAb28128P (antibody, human IgG4 S228P, kappa, V domains shown) VH: EVQLVESGGGVVQPGGSLRLSCAASGFIFDDYAMHWVRQVPGKGLEWISLSSGGGGGTYYADPVKGRFTISRDNSKNSLHLQMNSLRAEDTASYYCAKDMVFGVVTPDFFFAMDVWGQGTTVTVSS VL: DIQMTQSPSSLSASVGDRVTITCRASQSISTYLNWYQQKPGKAPKLLIYGASSLQRGVPSRFSGSGSGTDFTLTISSLQPEDFATYYCQQTYSTPPITFGQGTRLEIKR
Result: 1.16e+06

Task: Now this one: mAb28042P (antibody, human IgG4 S228P, kappa, V domains shown) VH: QLQLQESDPGLVKPSETLSLTCTVSGDSIRNSNYYWGWIRQPPGKGLEWIGSIYFSGRTYFNPSLKSRVTIPVDMSKNQFSLMLNSVTATDTAVYYCARHGGITAAGGFFDYWGQGTLVTVSS VL: DIQMTQSPSSLSASVGDRVTITCQASQDISNYLNWYQQKPGKAPNVLIYDASNLETGVPSRFSGSGSGTDFTFTISSLQPEDFATYYCQQNDNLPLTFGGGTKVEIKR
Result: 362000
